read-out: urokinase plasminogen activator (uPA), PLAU (gene 5328); assay: BSK_KF3CT_uPA: BioMAP Diversity Plus: KF3CT Assay for urokinase plasminogen activator (uPA) Biomarker Activity (AID 2283075); details: primary human keratinocytes with fibroblasts; actives raise or lower the signal
Active and inactive are the calls of the source. How the source made its calls: active means hit-call score of the fitted dose curve at least 0.9, where 1 is the maximum; inactive means score below 0.9.
Assign a class; possible classes are active, inactive

QUERY: Could you check what this test reported for CCCCC(CC)COC(=O)CC(C(=O)OCC(CC)CCCC)S(=O)(=O)O (centres undefined) ?
RESULT: active

QUERY: Could you check what this test reported for O=C(O)Cc1ccccc1Nc1c(Cl)cccc1Cl ?
RESULT: inactive

QUERY: Could you check what this test reported for CCOC(=O)C(C)(C)Oc1ccc(Cl)cc1 ?
RESULT: inactive

QUERY: Could you check what this test reported for C[Si]1(C)O[Si](C)(C)O[Si](C)(C)O[Si](C)(C)O1 ?
RESULT: inactive

QUERY: Could you check what this test reported for Nc1ccc(S(=O)(=O)c2ccc(N)cc2)cc1 ?
RESULT: inactive

QUERY: Could you check what this test reported for CCCCCCCC=O ?
RESULT: inactive

QUERY: Could you check what this test reported for CCOc1ccc2c(c1)C(C)=CC(C)(C)N2 ?
RESULT: inactive

QUERY: Could you check what this test reported for Cc1cc(=O)[nH]c(=S)[nH]1 ?
RESULT: inactive

QUERY: Could you check what this test reported for C[C@]12C=CC(=O)C=C1CC[C@@H]1[C@@H]2C(=O)C[C@@]2(C)[C@H]1CC[C@]2(O)C(=O)CO ?
RESULT: inactive

QUERY: Could you check what this test reported for Cc1ccc(C)c(O)c1C ?
RESULT: inactive

QUERY: Could you check what this test reported for Cc1cccc(C)c1O ?
RESULT: inactive

QUERY: Could you check what this test reported for Nc1ccccc1N ?
RESULT: inactive

QUERY: Could you check what this test reported for COc1cc(S(=O)(=O)O)c(C)cc1N=Nc1c(O)ccc2cc(S(=O)(=O)O)ccc12 ?
RESULT: inactive

QUERY: Could you check what this test reported for CC1(C)NC(=O)NC1=O ?
RESULT: inactive

Recorded values, source PubChem BioAssay (EPA / NIEHS).
